target: Cytochrome P450 2D6 (Homo sapiens); assay: Cytochrome P450 Family 2 Subfamily D Member 6 (CYP2D6) small molecule antagonists: luciferase reporter qHTS assay (AID 1671196); settings: P450-Glo CYP2D6 enzyme assay, luciferin luminescence, 1 h; series mostly up to 115 µM; further: nearly all actives have a fitted effect of over 50% in size
Records with an inconclusive call do not appear. Active and inactive are the calls of the source. The call rests on the fitted dose curve; in most records, active means well fitted inhibition curve with a large enough effect in the repeat runs; inconclusive means weak or mixed curves; inactive means no such curve, though single readings can be large or run the other way.
Bench note: report the call from active, inactive

- compound: "C=CC(=O)OCC[N+](C)(C)C"
  qualitative.label: "inactive"
- compound: "CNC(=O)c1c(I)c(NC(C)=O)c(I)c(C(=O)O)c1I"
  qualitative.label: "inactive"

Continue with the compound presented below.
Q) So what was the verdict on CC[N+](C)(CC)CC in this test?
A) inactive
